measured_on: HIV-1 Env of isolate MGRM-F1-020 (subtype F) (HIV-1)
protocol_description: cell-based or functional assay
attribute_measured: IC50 (neutralization) (µg/mL)

binder: PGT-136 (antibody, V domains shown) VH: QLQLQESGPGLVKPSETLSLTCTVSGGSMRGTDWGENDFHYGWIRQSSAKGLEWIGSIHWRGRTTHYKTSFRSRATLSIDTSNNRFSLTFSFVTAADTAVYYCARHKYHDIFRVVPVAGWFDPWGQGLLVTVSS VL: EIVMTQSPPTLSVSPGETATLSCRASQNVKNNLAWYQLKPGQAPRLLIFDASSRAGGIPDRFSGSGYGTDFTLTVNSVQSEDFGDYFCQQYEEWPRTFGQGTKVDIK
value_operator: =
test_value: 9.31

binder: PGT-127 (antibody, V domains shown) VH: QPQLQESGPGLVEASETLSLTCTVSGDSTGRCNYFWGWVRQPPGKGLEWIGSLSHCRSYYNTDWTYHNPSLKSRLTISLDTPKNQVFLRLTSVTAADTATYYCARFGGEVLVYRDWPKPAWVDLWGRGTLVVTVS VL: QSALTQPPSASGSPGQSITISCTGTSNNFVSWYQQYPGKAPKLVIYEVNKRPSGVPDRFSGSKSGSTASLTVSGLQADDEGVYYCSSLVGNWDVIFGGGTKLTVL
value_operator: >
test_value: 50

binder: PGT-123 (antibody, V domains shown) VH: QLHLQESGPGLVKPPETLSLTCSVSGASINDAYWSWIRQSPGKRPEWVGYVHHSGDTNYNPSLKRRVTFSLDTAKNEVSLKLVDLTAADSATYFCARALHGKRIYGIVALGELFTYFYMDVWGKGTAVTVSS VL: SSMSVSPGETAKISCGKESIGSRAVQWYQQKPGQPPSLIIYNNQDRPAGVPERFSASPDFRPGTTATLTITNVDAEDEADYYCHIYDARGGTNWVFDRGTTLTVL
value_operator: =
test_value: 0.051

binder: PGT-126 (antibody, V domains shown) VH: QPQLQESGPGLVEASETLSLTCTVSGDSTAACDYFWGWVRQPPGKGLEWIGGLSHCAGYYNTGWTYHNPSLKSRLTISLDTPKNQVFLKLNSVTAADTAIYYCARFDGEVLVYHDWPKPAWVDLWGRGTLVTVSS VL: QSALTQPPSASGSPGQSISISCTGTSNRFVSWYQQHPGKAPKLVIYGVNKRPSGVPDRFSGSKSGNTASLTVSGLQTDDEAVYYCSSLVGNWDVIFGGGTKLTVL
value_operator: >
test_value: 50

binder: PGT-131 (antibody, V domains shown) VH: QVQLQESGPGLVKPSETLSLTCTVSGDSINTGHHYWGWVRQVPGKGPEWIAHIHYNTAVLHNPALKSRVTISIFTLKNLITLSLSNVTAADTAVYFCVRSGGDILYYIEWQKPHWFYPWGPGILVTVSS VL: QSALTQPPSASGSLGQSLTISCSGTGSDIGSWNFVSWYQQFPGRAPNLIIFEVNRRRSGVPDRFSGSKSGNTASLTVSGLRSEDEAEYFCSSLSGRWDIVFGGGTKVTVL
value_operator: >
test_value: 50
